# target system: UniProt P36897
# Sequence (P36897 80-503 limits assumed): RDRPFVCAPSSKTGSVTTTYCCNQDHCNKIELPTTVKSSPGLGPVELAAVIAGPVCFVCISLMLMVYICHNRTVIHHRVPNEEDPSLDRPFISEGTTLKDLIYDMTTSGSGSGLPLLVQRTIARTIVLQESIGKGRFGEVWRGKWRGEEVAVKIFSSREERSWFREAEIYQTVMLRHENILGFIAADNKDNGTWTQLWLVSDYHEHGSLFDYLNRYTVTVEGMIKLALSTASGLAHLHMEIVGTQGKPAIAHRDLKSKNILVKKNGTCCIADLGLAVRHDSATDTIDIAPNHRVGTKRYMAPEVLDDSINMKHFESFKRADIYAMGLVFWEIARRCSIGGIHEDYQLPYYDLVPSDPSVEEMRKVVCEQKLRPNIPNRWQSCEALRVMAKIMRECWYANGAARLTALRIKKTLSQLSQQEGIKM
# test: ADP-GLO Kinases assay, inhibition of ALK5 kinase activity
# Type: biochemical
# test conditions: Table 12; compounds classified in term of potency; ATP at Km, 25° C.; read-out: ALK5 IC50
attribute measured: IC50

INSERT INTO measurements (structure_as_smiles, target_system, attribute_measured, measurement) VALUES
  ('Nc1cncc(-c2cc(-c3cc(Cl)ccc3F)nc3c2OCCN3)c1', 'UniProt P36897', 'IC50', '1 to 5 nM'),
  ('Fc1ccc(Cl)cc1-c1cc(-c2cnc3[nH]ncc3c2)c2c(n1)NCCO2', 'UniProt P36897', 'IC50', '≤ 1 nM'),
  ('CN1CCN(CCC(=O)Nc2cncc(-c3cc(-c4cc(Cl)ccc4F)nc4c3OCCN4)c2)C(=O)C1', 'UniProt P36897', 'IC50', '5 to 10 nM'),
  ('COC(=O)c1cncc(-c2cc(-c3cc(Cl)ccc3F)nc3c2OCCN3)c1', 'UniProt P36897', 'IC50', '1 to 5 nM'),
  ('Fc1ccc(Cl)cc1-c1cc(-c2cnc3[nH]cnc3c2)c2c(n1)NCCO2', 'UniProt P36897', 'IC50', '5 to 10 nM'),
  ('O=C(CCCN1CCNCC1)Nc1cncc(-c2cc(-c3cc(Cl)ccc3F)nc3c2OCCN3)c1', 'UniProt P36897', 'IC50', '1 to 5 nM'),
  ('O=C(CCN(CCO)CCO)Nc1cncc(-c2cc(-c3cc(Cl)ccc3F)nc3c2OCCN3)c1', 'UniProt P36897', 'IC50', '1 to 5 nM'),
  ('COC(=O)c1cncc(-c2cc(-c3cccc(C)n3)nc3c2OCCN3)c1', 'UniProt P36897', 'IC50', '5 to 10 nM');

Every entry's value here was drawn from patent US20240116948A1.
